- experimental-system: UniProt P14902
- Sequence (P14902 whole entry): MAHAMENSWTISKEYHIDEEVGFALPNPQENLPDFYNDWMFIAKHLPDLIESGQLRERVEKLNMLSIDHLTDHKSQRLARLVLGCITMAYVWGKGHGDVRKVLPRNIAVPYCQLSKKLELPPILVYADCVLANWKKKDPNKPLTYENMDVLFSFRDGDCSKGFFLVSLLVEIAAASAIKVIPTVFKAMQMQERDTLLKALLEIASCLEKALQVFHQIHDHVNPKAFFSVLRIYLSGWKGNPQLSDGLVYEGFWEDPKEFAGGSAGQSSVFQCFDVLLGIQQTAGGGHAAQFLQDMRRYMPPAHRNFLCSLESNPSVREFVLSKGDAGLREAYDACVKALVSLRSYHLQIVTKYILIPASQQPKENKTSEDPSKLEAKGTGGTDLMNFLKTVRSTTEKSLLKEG
- measurement-description: IDO1 Cellular Assay in HeLa Cells Stimulated with IFNγ
- Assay type: cell-based
- measurement-context: about 48 hours, read-out: Hela IC50
quantity: IC50 (nM)

{"compound": "Cc1ccnc(C(=O)N2CCCc3nc(C4(C(=O)Nc5ccc(F)cc5)COC4)ccc32)n1", "quantity": "IC50", "meas-value": 1.91}

A: CC(NC(=O)c1ccc(F)cc1)c1ccc2c(n1)CCCN2C(=O)c1ccccc1Cl (stereo not shown)
B: CC(C)(C)OC(=O)N1CCCc2cc(C3(C(=O)NC45CC(C4)C5)CCC3)ccc21
From the items above, decide which of A and B has the lower IC50 reading. Mark your answer with the label of the selected entry.
A
(A: 1.7 nM, B: 87.6 nM)

###

- experimental-system: UniProtKB P14902
- measurement-description: IDO1 Cellular Assay in HeLa Cells Stimulated with IFNγ
- Type: cell-based
- measurement-context: read-out: Hela IC50
pIC50: −log10 of the molar value. Structures can show the parent of a compound that is named as a salt.
quantity: pIC50

{"compound": "Cc1nccc(N2CCCc3nc(C4(C(=O)Nc5ccc(F)cc5)CC4(F)F)ccc32)n1 (single isomer, unassigned) [Example 422]", "pIC50": 8.77}
{"compound": "CC(NC(=O)c1ccc(F)cc1)c1ccc2c(n1)CCCN2C(=O)OCCCn1ccnc1 (stereo not shown) [Example 325]", "pIC50": 5.89}
{"compound": "Cc1ncnc(N2CCCc3nc(C(C)NC(=O)c4ccc(Cl)cc4)ccc32)c1C (stereo not shown) [Example 347]", "pIC50": 6.81}
{"compound": "Cc1nccc(N2CCCc3nc(C(C)C(=O)Nc4ccc(F)cc4)ccc32)n1 (stereo not shown) [Example 372]", "pIC50": 8.27}
{"compound": "O=C(OC1CC1)N1CCCc2nc(C3(C(=O)Nc4ccc(F)cc4)CC4(CC4)C3)ccc21 [Example 417]", "pIC50": 9.14}

1: CC(NC(=O)c1ccc(C#N)cc1)c1ccc2c(n1)CCCN2C(=O)OC1CC1 (stereo not shown) [Example 337]
2: CC(NC(=O)c1ccc(Cl)cc1)c1ccc2c(n1)CCCN2c1ccnc(C(F)(F)F)n1 (stereo not shown) [Example 345]
3: C[C@H](NC(=O)c1ccc(F)cc1)c1ccc2c(n1)CCCN2c1cccc(F)n1 [Example 387]
4: C[C@H](NC(=O)c1ccc(F)cc1)c1ccc2c(n1)CCCN2c1cccc(OC(C)(C)C)n1 [Example 385]
Order the items by recorded pIC50; the first position goes to the largest value. // ordering of labels required in reply
2, 3, 1, 4
(2: 8.76, 3: 7.59, 1: 7.05, 4: 6.01)

P: CC(NC(=O)c1ccc(F)cc1)c1ccc2c(n1)CCCN2C(=O)OCC(F)F (stereo not shown) [Example 309]
Q: CC(C(=O)Nc1ccc(F)cc1)c1ccc2c(n1)CCCN2c1ccnc(C2CC2)n1 (stereo not shown) [Example 366]
R: CC(NC(=O)c1ccc(Cl)cc1)c1ccc2c(n1)CCCN2c1nc(Cl)nc2c1CCCC2 (stereo not shown) [Example 361, trifluoroacetate]
S: Cc1nccc(N2CCCc3nc(C4(C(=O)Nc5ccc(F)cc5)CC(F)C4)ccc32)n1 (stereo not shown) [Example 419, 2,2,2-trifluoroacetate]
Sort these compounds on pIC50 so the largest reading comes first. Labels, requested order.
S, Q, R, P

1: CC(NC(=O)c1ccc(Cl)cc1)c1ccc2c(n1)CCCN2c1cccc(CO)n1 (stereo not shown) [Example 346]
2: COc1cc(N2CCCc3nc(C(C)NC(=O)c4ccc(F)cc4)ccc32)ncn1 (stereo not shown) [Example 379]
Consider entries 1 and 2 . Which has the numerically lower pIC50? // caller expects the label of the chosen entry
2
